Every entry's value here was drawn from patent US20250361230A1.

- target or system: LATS1 (Homo sapiens)
- Sequence (O95835 whole entry): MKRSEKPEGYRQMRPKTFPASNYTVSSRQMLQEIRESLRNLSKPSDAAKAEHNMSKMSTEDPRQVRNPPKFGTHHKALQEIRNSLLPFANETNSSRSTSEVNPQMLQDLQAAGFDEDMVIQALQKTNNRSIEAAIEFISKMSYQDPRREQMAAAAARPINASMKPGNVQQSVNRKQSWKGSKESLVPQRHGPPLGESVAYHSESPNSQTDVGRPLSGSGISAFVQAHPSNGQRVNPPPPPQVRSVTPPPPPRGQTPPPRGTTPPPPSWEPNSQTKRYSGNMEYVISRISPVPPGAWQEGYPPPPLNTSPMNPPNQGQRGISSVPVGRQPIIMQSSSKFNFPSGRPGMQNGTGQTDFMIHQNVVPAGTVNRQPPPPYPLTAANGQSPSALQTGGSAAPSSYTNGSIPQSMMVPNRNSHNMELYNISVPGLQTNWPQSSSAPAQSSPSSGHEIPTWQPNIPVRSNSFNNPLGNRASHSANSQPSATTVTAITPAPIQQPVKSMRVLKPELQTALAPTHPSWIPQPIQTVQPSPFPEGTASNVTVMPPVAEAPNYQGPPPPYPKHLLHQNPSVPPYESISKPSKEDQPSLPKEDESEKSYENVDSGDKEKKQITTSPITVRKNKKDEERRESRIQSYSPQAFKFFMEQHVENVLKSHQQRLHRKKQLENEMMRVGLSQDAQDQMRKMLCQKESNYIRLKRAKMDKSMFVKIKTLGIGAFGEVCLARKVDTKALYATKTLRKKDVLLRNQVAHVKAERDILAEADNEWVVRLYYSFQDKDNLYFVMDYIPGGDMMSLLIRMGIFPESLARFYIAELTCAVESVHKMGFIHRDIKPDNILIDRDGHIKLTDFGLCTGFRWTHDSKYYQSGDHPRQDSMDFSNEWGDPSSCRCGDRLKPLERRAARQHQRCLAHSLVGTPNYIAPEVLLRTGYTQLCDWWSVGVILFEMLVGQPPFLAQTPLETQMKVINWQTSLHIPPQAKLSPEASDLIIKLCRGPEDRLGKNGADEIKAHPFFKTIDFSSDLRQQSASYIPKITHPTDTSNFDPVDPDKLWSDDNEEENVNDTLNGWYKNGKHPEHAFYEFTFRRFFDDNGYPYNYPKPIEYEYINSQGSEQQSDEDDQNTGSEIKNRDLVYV
- experiment: RBC HotSpot kinase assay (33P-ATP, P81 filter-binding), LATS1
- Type: biochemical
- cond: Table 28, biochemical kinase assay; read-out: LATS1 IC50
property: IC50 (nM)

For orientation, consider the following solved cases.
>  <compound>
Cc1cc(-c2ccnc3[nH]cc(F)c23)ncc1C1(O)[C@H](C)CN(C2CCS(=O)(=O)CC2)C[C@@H]1C (some centres unmarked)

>  <IC50 [nM]>
2080

$$$$
>  <compound>
COC(=O)c1c[nH]c2nccc(-c3cc(C)c([C@@]4(O)[C@H](C)CN(C(=O)CN)C[C@@H]4C)c(F)c3)c12

>  <IC50 [nM]>
5.1

$$$$
>  <compound>
CC1CC(O)(c2ccc(-c3ccnc4[nH]cc(F)c34)cc2Cl)CCN1 (centres unmarked)

>  <IC50 [nM]>
24

$$$$
>  <compound>
NCc1ccc(-c2ccnc3[nH]cc(-c4cccc(F)c4)c23)cc1

>  <IC50 [nM]>
21

$$$$
>  <compound>
Cc1cc(-c2ccnc3[nH]cc(F)c23)ccc1[C@@]1(O)[C@H](C)CN(C2CCC2)C[C@@H]1C

>  <IC50 [nM]>
2.5

$$$$
>  <compound>
CN(C)CCS(=O)(=O)N1CCC(c2ccc(-c3ccnc4[nH]cc(F)c34)cc2Cl)CC1

>  <IC50 [nM]>
174

$$$$
>  <compound>
c1cc(-c2ccc(C3CCNCC3)cc2)c2cc[nH]c2n1

>  <IC50 [nM]>
70

$$$$
>  <compound>
OC1(c2ccc(-c3ccnc4[nH]cc(F)c34)cc2)CNC1

>  <IC50 [nM]>
9.2

$$$$
>  <compound>
c1ccc(-c2cc(-c3ccnc4[nH]ccc34)ccc2C2CCNCC2)cc1

>  <IC50 [nM]>
15.2

$$$$

1. NCc1ccc(-c2ccnc3[nH]cc(-c4ccccc4)c23)cc1-c1ccccc1
2. Cc1cc(-c2ccnc3[nH]cc(F)c23)cc(C)c1CN
query: I'd appreciate it if you could identify which of 1 and 2 has the greater IC50. // caller expects the label of the chosen entry
result: 1
